- Tested on: MCF7 breast
- assay-method-text: NCI-60 one-dose screen, 48 h (100 = growth as untreated, 0 = no growth, -100 = all killed)
- cond: 10 µM unless noted
Compounds without any hit were thinned out: in the full panel of roughly 83,000, 20% have a hit.
Please use YES for growth under 50% and NO for everything else, ties included.

// known answers, use as guide
O=C1CCCCC1(c1ccccc1)c1ccccc1    NO
CCC1=CCC[C@@]2(C)CCC[C@@]3(C)CCCC(C)(C)[C@]1([O-])[O+]32    NO
COc1c2occc2c(OC)c2c(=O)c(-c3cc(-c4ccc(F)cc4)c(C#N)c(N)n3)c(C)oc12    YES
C[n+]1c(/C=C/c2c(O)ccc3ccccc23)ccc2ccccc21    YES
CN(C)CCOC(=O)Nc1ccccc1Cl    NO

input: Field: below-cutoff. Rule: recorded growth strictly less than 50%. Subject: O=C(CCl)N(C1CCCCC1)C1CCCCC1
output: NO

input: What do you get for COc1ccc(-c2cnnn2-c2nonc2-n2cccc2)cc1OC ?
output: YES

input: What do you get for ClC(Cl)c1nc(-c2ccccc2)nc2cc(-c3ccccc3)nn12 ?
output: YES

input: What do you get for Cc1ccc(C(=O)C2=Cc3cc4ccccc4n3Cc3cnnn32)cc1 ?
output: NO

input: What do you get for COc1cc(C(=O)/C=C/c2ccc3nc(-c4cc(F)cc(F)c4)sc3c2)cc(OC)c1OC ?
output: NO

input: What do you get for COc1ccc(-c2nc(-c3nc4cc(C)c(C)cc4[nH]3)cc3c2[nH]c2ccccc23)cc1 ?
output: YES

input: What do you get for CCO/C=N/C1=C(C#N)C(c2ccc(Cl)cc2)c2c(c3ccc(C)cc3[nH]c2=O)O1 (stereo unspecified) ?
output: NO

input: What do you get for CC(C)(C)Nc1c(-c2cccs2)nc2ncccn12 ?
output: NO

input: What do you get for CCCCCCCCCCCCCCCCCCNC(=O)[C@H]1CSC(c2cccs2)N1 (stereo partly specified) ?
output: YES

input: What do you get for Cc1nc2ncccc2nc1Nc1ccc(S(=O)(=O)Nc2cncs2)cc1 ?
output: NO

---

- Test system: U251 CNS
- assay-method-text: NCI-60 one-dose screen, 48 h (100 = growth as untreated, 0 = no growth, -100 = all killed)
- cond: 10 µM unless noted
About 83,000 compounds went through this panel and 20% of them were active in at least one assay; those are over-represented in the sample as a whole.
Please use MET for growth under 90% and NOT MET for everything else, ties included.

Cc1cc(N/N=C/c2nc(-c3ccccc3)oc2C)c2cc(Br)ccc2n1    MET
CC(=O)Nc1scc[n+]1Cc1ccccc1    NOT MET
CCOC(=O)c1cc(C(=O)c2cc(OC)c(OC)c(OC)c2)n2c1ccc1ccccc12    MET

input: Field: below-cutoff. Rule: recorded growth strictly less than 90%. Subject: O=C(Nc1ccc(Cl)c(Cl)c1)NS(=O)(=O)c1cnccc1Oc1ccc(F)cc1
output: MET

---

- Tested on: SR leukemia
- assay-method-text: NCI-60 one-dose screen, 48 h (100 = growth as untreated, 0 = no growth, -100 = all killed)
- cond: 10 µM unless noted
- Description: Growth inhibition of the SR human tumor cell line is measured as a screen for anti-cancer activity. Cells are grown in 96 well plates and exposed to the test compound for 48 hours. Compounds are tested at a single concentration, which is 10^-5 M for most compounds. The reported endpoint is percent growth (GI% or GIPRCNT), where numbers from 0 - 100% represent growth inhibition, and numbers from -100% - 0 represent cell death. For example, a value of 40 represents 60% growth inhibition. […]
This is part of a sample that, as a whole, favours compounds with a hit. Of some 83,000 tested, about 20% had one in any assay.
We use 80% as the dividing line for growth: on or above the line is Satisfied, below is Not satisfied.

// known answers, use as guide
CCCCN(CCCC)C(=O)CC    Satisfied
C=C1C(=O)O[C@H]2[C@H]1CC/C(Cn1cc(CNC(=O)Cc3cn(C(=O)c4ccc(Cl)cc4)c4ccc(OC)cc34)nn1)=C\CC[C@@]1(C)O[C@@H]21    Not satisfied

input: Check this compound for growth at or above 80%: COc1ccc(C(=O)n2nc(/C=C/c3ccc(O)c(OC)c3)cc2/C=C/c2ccc(O)c(OC)c2)cc1
output: Not satisfied

input: What do you get for O=C(/C=C/c1cc(-c2ccc3c(c2)OCO3)n[nH]1)c1ccc2c(c1)OCO2 ?
output: Not satisfied

input: What do you get for CCN(CC)CCOc1ccc(/C(=C(/C)c2ccccc2)c2ccc(OC(C)=O)cc2)cc1 ?
output: Satisfied

input: What do you get for CCC(C)/C(=C\C#N)NCCCN/C(=C/C#N)C(C)CC (centres undefined) ?
output: Satisfied

input: What do you get for c1ccc(Nc2nc(Nc3ccccc3)nc(Nc3ccccc3)n2)cc1 ?
output: Not satisfied

input: What do you get for COc1ccc(NC(=O)CSc2nc(-c3ccc(OC)c(OC)c3)cc(-c3cc(OC)c(OC)c(OC)c3)n2)cc1 ?
output: Satisfied
